# Test system: Mycobacterium tuberculosis H37Rv
# test: Inhibition of recombinant Mycobacterium tuberculosis H37Rv C-terminal His6-tagged MetRS expressed in Escherichia coli BL21 (DE3) Star cells at 100 uM incubated for 30 mins followed by incubation with ATP, methionine, tRNA, iPPase for 10 mins and measured after 30 mins by BIOMOL Green reagent based plate reader analysis relative to control
readout-kind: inhibition (%)
Give bare numbers, in %.

Recorded inhibition, per entry:
- CCOC(=O)c1sc(N/N=C/c2ccccc2)nc1C: 73
- COc1cc(/C=N/Nc2nc(-c3ccc(Br)cc3)cs2)cc([N+](=O)[O-])c1O: 110

Answer for every listed entry: what is its inhibition? The entries follow.
1. CN(C)c1ccc(/C=N/Nc2nc(-c3ccccc3)cs2)cc1
2. COc1cc(/C=N/Nc2nccs2)ccc1OCc1ccccc1Cl
3. COc1cc(/C=N/Nc2nccs2)ccc1OC(=O)c1ccc(Cl)cc1Cl
4. O=[N+]([O-])c1cccc(-c2csc(N/N=C/c3ccccc3Br)n2)c1

123
102
142
93

* * *

# measurement-target: Leucine--tRNA ligase (Mycobacterium tuberculosis (strain ATCC 25618 / H37Rv), UniProt P9WFV1)
# test: Inhibition of Mycobacterium tuberculosis LeuRS expressed in Escherichia coli Rosetta (DE3) cells incubated for 30 mins followed by incubation with ATP, leucine, tRNA, iPPase for 10 mins and measured after 30 mins by BIOMOL Green reagent based plate reader analysis
Give measured IC50 for each item. Keep answers brief.

Recorded IC50, per entry:
• COc1ccc(/C=N/Nc2nc(-c3ccc(F)cc3)cs2)cc1Br = 12.5 µM
• COc1cc(/C=N/Nc2nc(-c3ccc([N+](=O)[O-])cc3)cs2)cc([N+](=O)[O-])c1O = 5.8 µM
• O=[N+]([O-])c1cccc(-c2csc(N/N=C/c3ccccc3Br)n2)c1 = 8.9 µM
• O=C(O)c1ccc(/C=N/Nc2nc(-c3ccc(Cl)cc3Cl)cs2)cc1 = 27.3 µM
• Cc1csc(N/N=C/c2ccccc2Br)n1 = 38.4 µM
• COc1ccc(/C=N/Nc2nc(C)cs2)cc1Br = 95 µM

// below: IC50 requested for another compound
Fill in: IC50 of Brc1ccccc1/C=N/Nc1nc(-c2ccccc2)cs1 is ___
24.1 µM

* * *

# Tested on: Mycobacterium tuberculosis H37Rv
# test: Inhibition of recombinant Mycobacterium tuberculosis H37Rv C-terminal His6-tagged MetRS expressed in Escherichia coli BL21 (DE3) Star cells at 100 uM incubated for 30 mins followed by incubation with ATP, methionine, tRNA, iPPase for 10 mins and measured after 30 mins by BIOMOL Green reagent based plate reader analysis relative to control
readout-kind: inhibition (%)
Numbers only, in %.

Recorded inhibition, per entry:
* Cc1sc(N/N=C/c2cccc(O)c2)nc1-c1ccccc1 | 112
* COC(=O)c1sc(N/N=C/c2ccc([N+](=O)[O-])cc2)nc1C | 75
* COC(=O)c1sc(N/N=C/c2ccc(Br)cc2)nc1C | 88

Answer for every listed entry: what is its inhibition? The entries follow.
1. Cc1csc(N/N=C/c2cc(Br)ccc2O)n1
2. CCOC(=O)c1sc(N/N=C/c2cc(Br)c(O)c(OC)c2)nc1C
3. COc1cc(/C=N/Nc2nc(C)c(C(C)=O)s2)ccc1OCc1ccccc1Cl

[113, 94, 113]

* * *

Give measured MIC for each item. Keep answers brief.
# Test system: Mycobacterium tuberculosis
# Assay type: functional
# experimental-conditions: H37Rv ATCC 27294, 168 h
One number for each entry, in µM.

• NNC(=O)c1ccncc1 [ISONIAZID] = 0.39

Answer for every listed entry: what is its MIC? The entries follow.
1. COc1ccc(/C=N/Nc2nc(-c3ccc(F)cc3)cs2)cc1Br
2. O=[N+]([O-])c1cccc(-c2csc(N/N=C/c3ccccc3Br)n2)c1

[9.4, 37]

* * *

# test: Cytotoxicity against human HepG2 cells assessed as reduction in cell viability incubated for 72 hrs by MTT assay
# Format: cell-based
readout-kind: CC50 at 72 h

Fill in: CC50 at 72 h of COc1ccc(/C=N/Nc2nc(-c3ccc(F)cc3)cs2)cc1Br is ___
> 100 µM

* * *

Give measured inhibition for each item. Keep answers brief.
# measurement-target: Leucine--tRNA ligase (Mycobacterium tuberculosis (strain ATCC 25618 / H37Rv))
# Sequence (whole entry): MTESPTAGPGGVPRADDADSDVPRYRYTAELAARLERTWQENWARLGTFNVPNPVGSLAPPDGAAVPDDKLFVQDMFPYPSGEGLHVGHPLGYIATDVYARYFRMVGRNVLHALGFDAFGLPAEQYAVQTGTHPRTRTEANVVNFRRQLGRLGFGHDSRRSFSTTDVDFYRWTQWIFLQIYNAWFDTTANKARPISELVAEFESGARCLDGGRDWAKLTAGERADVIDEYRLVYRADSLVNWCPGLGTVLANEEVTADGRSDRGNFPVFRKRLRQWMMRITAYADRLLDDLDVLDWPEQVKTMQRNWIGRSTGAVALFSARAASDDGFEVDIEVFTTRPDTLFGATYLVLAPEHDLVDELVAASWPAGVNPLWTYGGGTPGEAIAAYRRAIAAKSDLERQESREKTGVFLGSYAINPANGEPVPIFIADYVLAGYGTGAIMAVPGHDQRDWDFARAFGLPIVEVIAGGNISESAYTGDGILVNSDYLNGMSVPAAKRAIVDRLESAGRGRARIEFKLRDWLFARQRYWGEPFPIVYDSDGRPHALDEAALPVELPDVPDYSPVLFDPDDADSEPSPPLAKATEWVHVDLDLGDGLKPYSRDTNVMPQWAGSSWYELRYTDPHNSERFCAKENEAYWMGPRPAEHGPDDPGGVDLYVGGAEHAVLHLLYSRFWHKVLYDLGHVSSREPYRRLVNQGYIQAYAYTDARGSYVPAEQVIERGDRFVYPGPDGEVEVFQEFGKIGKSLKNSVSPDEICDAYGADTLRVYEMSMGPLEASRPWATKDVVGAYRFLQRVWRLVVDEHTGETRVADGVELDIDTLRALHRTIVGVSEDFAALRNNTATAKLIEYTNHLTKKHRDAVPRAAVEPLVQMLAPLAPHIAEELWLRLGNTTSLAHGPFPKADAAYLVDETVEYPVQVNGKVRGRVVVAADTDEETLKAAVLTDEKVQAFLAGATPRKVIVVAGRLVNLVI
# test: Inhibition of Mycobacterium tuberculosis LeuRS expressed in Escherichia coli Rosetta (DE3) cells at 100 uM incubated for 30 mins followed by incubation with ATP, leucine, tRNA, iPPase for 10 mins and measured after 30 mins by BIOMOL Green reagent based plate reader analysis relative to control

Recorded inhibition, per entry:
• COC(=O)c1sc(N/N=C/c2ccc(Br)cc2)nc1C = 46%
• O=[N+]([O-])c1cccc(-c2csc(N/N=C/c3ccccc3Br)n2)c1 = 80%
• CCOC(=O)c1sc(N/N=C/c2cc(Br)c(O)c(OC)c2)nc1C = 54%
• CCOC(=O)c1sc(N/N=C/c2cc(Br)c(O)c(Br)c2)nc1C = 55%
• COc1ccc(/C=N/Nc2nccs2)cc1Br = 29%

// below: inhibition requested for another molecule
Fill in: inhibition of CCOC(=O)c1sc(N/N=C/c2ccc(C(=O)O)cc2)nc1C is ___
-7%

* * *

# measurement-target: Leucine--tRNA ligase (Mycobacterium tuberculosis (strain ATCC 25618 / H37Rv)) (UniProt P9WFV1)
# test: Inhibition of Mycobacterium tuberculosis LeuRS expressed in Escherichia coli Rosetta (DE3) cells at 100 uM incubated for 30 mins followed by incubation with ATP, leucine, tRNA, iPPase for 10 mins and measured after 30 mins by BIOMOL Green reagent based plate reader analysis relative to control
Classify as follows. Reported inhibition greater than or equal to 60%: Y. Reported inhibition below: N.

- Cc1csc(N/N=C/c2ccc([N+](=O)[O-])cc2)n1: N
- COc1cc(/C=N/Nc2nc(-c3ccc([N+](=O)[O-])cc3)cs2)cc([N+](=O)[O-])c1O: Y
- CCOC(=O)c1sc(N/N=C/c2ccccc2)nc1C: N
- CN(C)c1ccc(/C=N/Nc2nc(-c3ccccc3)cs2)cc1: Y
- COc1ccc(OC)c(/C=N/Nc2nc(-c3cccnc3)cs2)c1: Y
- CCOC(=O)c1sc(N/N=C/c2ccc(Br)cc2)nc1C: N

Kindly determine if inhibition recorded for Cc1sc(N/N=C/c2cccc(O)c2)nc1-c1ccccc1 is above or exactly 60%.
Y

Kindly determine if inhibition recorded for CCOc1ccc(/C=N/Nc2nc(C)c(C(C)=O)s2)cc1 is above or exactly 60%.
N

Kindly determine if inhibition recorded for COC(=O)c1sc(N/N=C/c2ccc(C(=O)O)cc2)nc1C is above or exactly 60%.
N

* * *

# Tested on: Mycobacterium tuberculosis H37Rv
# test: Inhibition of recombinant Mycobacterium tuberculosis H37Rv C-terminal His6-tagged MetRS expressed in Escherichia coli BL21 (DE3) Star cells at 100 uM incubated for 30 mins followed by incubation with ATP, methionine, tRNA, iPPase for 10 mins and measured after 30 mins by BIOMOL Green reagent based plate reader analysis relative to control
readout-kind: inhibition (%)
One number for each entry, in %.

* CCOC(=O)c1sc(N/N=C/c2ccccc2C(F)(F)F)nc1C | 45

Answer for every listed entry: what is its inhibition? The entries follow.
1. O=[N+]([O-])c1cccc(-c2csc(N/N=C/c3cccc(Oc4ccccc4)c3)n2)c1
2. COc1ccc(/C=N/Nc2nc(C)c(C)s2)cc1
3. Cc1csc(N/N=C/c2ccc([N+](=O)[O-])cc2)n1
4. CCCCCCOc1ccc(/C=N/Nc2nccs2)cc1OC

65
1
92
62
